Assay: Inhibition of spike glycoprotein S in SARS-CoV-2 pseudovirus infected human 293T/ACE2 cells assessed as inhibition of viral infection measured after 48 hrs by luciferase reporter gene assay
Reported IC50 values for the following compounds.
Assay Metric: IC50

Substance Smiles	Assay Metric	Value Reported
C[C@@H]1O[C@@H](O[C@H]2[C@H](O[C@H]3CC[C@]4(C)[C@H]5CC=C6[C@@H]7CC(C)(C)CC[C@]7(C(=O)NCc7cccs7)CC[C@@]6(C)[C@]5(C)CC[C@H]4C3(C)C)O[C@H](CO)[C@@H](O[C@@H]3O[C@@H](C)[C@H](O)[C@@H](O)[C@H]3O)[C@@H]2O)[C@H](O)[C@H](O)[C@H]1O	IC50	5.89 µM
C[C@@H]1O[C@@H](O[C@H]2[C@H](O[C@H]3CC[C@]4(C)[C@H]5CC=C6[C@@H]7CC(C)(C)CC[C@]7(C(=O)NCCc7ccccc7)CC[C@@]6(C)[C@]5(C)CC[C@H]4C3(C)C)O[C@H](CO)[C@@H](O[C@@H]3O[C@@H](C)[C@H](O)[C@@H](O)[C@H]3O)[C@@H]2O)[C@H](O)[C@H](O)[C@H]1O	IC50	7.37 µM
C[C@@H]1O[C@@H](O[C@H]2[C@H](O[C@H]3CC[C@]4(C)[C@H]5CC=C6[C@@H]7CC(C)(C)CC[C@]7(C(=O)Nc7ccccc7Cl)CC[C@@]6(C)[C@]5(C)CC[C@H]4C3(C)C)O[C@H](CO)[C@@H](O[C@@H]3O[C@@H](C)[C@H](O)[C@@H](O)[C@H]3O)[C@@H]2O)[C@H](O)[C@H](O)[C@H]1O	IC50	6.27 µM
C[C@@H]1O[C@@H](O[C@H]2[C@H](O[C@H]3CC[C@]4(C)[C@H]5CC=C6[C@@H]7CC(C)(C)CC[C@]7(C(=O)NCc7ccccc7)CC[C@@]6(C)[C@]5(C)CC[C@H]4C3(C)C)O[C@H](CO)[C@@H](O[C@@H]3O[C@@H](C)[C@H](O)[C@@H](O)[C@H]3O)[C@@H]2O)[C@H](O)[C@H](O)[C@H]1O	IC50	4.37 µM
C[C@@H]1O[C@@H](O[C@H]2[C@H](O[C@H]3CC[C@]4(C)[C@H]5CC=C6[C@@H]7CC(C)(C)CC[C@]7(C(=O)N(C)Cc7ccccc7)CC[C@@]6(C)[C@]5(C)CC[C@H]4C3(C)C)O[C@H](CO)[C@@H](O[C@@H]3O[C@@H](C)[C@H](O)[C@@H](O)[C@H]3O)[C@@H]2O)[C@H](O)[C@H](O)[C@H]1O	IC50	7.76 µM

###

Assay: Inhibition of spike glycoprotein S in SARS-CoV-2 pseudovirus infected human 293T/ACE2 cells assessed as inhibition of viral infection measured after 48 hrs by luciferase reporter gene assay

Substance Smiles	IC50
O=C(/C=C/c1ccc(O)c2oc(-c3ccc(O)c(O)c3)cc12)O[C@H](Cc1ccc(O)c(O)c1)C(=O)O	3.85 µM
COc1ccccc1NC(=O)[C@]12CCC(C)(C)C[C@H]1C1=CC[C@@H]3[C@@]4(C)CC[C@H](O[C@@H]5O[C@H](CO)[C@@H](O[C@@H]6O[C@@H](C)[C@H](O)[C@@H](O)[C@H]6O)[C@H](O)[C@H]5O[C@@H]5O[C@@H](C)[C@H](O)[C@@H](O)[C@H]5O)C(C)(C)[C@@H]4CC[C@@]3(C)[C@]1(C)CC2	5.54 µM
C[C@@H]1O[C@@H](O[C@H]2[C@H](O[C@H]3CC[C@]4(C)[C@H]5CC=C6[C@@H]7CC(C)(C)CC[C@]7(C(=O)NCc7ccccc7F)CC[C@@]6(C)[C@]5(C)CC[C@H]4C3(C)C)O[C@H](CO)[C@@H](O[C@@H]3O[C@@H](C)[C@H](O)[C@@H](O)[C@H]3O)[C@@H]2O)[C@H](O)[C@H](O)[C@H]1O	5.68 µM
C[C@@H]1O[C@@H](O[C@H]2[C@H](O[C@H]3CC[C@]4(C)[C@H]5CC=C6[C@@H]7CC(C)(C)CC[C@]7(C(=O)NCc7ccco7)CC[C@@]6(C)[C@]5(C)CC[C@H]4C3(C)C)O[C@H](CO)[C@@H](O[C@@H]3O[C@@H](C)[C@H](O)[C@@H](O)[C@H]3O)[C@@H]2O)[C@H](O)[C@H](O)[C@H]1O	> 20 µM
COc1ccc(NC(=O)[C@]23CCC(C)(C)C[C@H]2C2=CC[C@@H]4[C@@]5(C)CC[C@H](O[C@@H]6O[C@H](CO)[C@@H](O[C@@H]7O[C@@H](C)[C@H](O)[C@@H](O)[C@H]7O)[C@H](O)[C@H]6O[C@@H]6O[C@@H](C)[C@H](O)[C@@H](O)[C@H]6O)C(C)(C)[C@@H]5CC[C@@]4(C)[C@]2(C)CC3)cc1	9.97 µM
C[C@@H]1O[C@@H](O[C@H]2[C@H](O[C@H]3CC[C@]4(C)[C@H]5CC=C6[C@@H]7CC(C)(C)CC[C@]7(C(=O)NCc7ccccn7)CC[C@@]6(C)[C@]5(C)CC[C@H]4C3(C)C)O[C@H](CO)[C@@H](O[C@@H]3O[C@@H](C)[C@H](O)[C@@H](O)[C@H]3O)[C@@H]2O)[C@H](O)[C@H](O)[C@H]1O	> 20 µM
C[C@@H]1O[C@@H](O[C@H]2[C@H](O[C@H]3CC[C@]4(C)[C@H]5CC=C6[C@@H]7CC(C)(C)CC[C@]7(C(=O)NCc7ccccc7Br)CC[C@@]6(C)[C@]5(C)CC[C@H]4C3(C)C)O[C@H](CO)[C@@H](O[C@@H]3O[C@@H](C)[C@H](O)[C@@H](O)[C@H]3O)[C@@H]2O)[C@H](O)[C@H](O)[C@H]1O	9.57 µM
C[C@@H]1O[C@@H](O[C@H]2[C@H](O[C@H]3CC[C@]4(C)[C@H]5CC=C6[C@@H]7CC(C)(C)CC[C@]7(C(=O)NCc7ccccc7Cl)CC[C@@]6(C)[C@]5(C)CC[C@H]4C3(C)C)O[C@H](CO)[C@@H](O[C@@H]3O[C@@H](C)[C@H](O)[C@@H](O)[C@H]3O)[C@@H]2O)[C@H](O)[C@H](O)[C@H]1O	6.32 µM
C[C@@H]1O[C@@H](O[C@H]2[C@H](O[C@H]3CC[C@]4(C)[C@H]5CC=C6[C@@H]7CC(C)(C)CC[C@]7(C(=O)OCc7ccccc7)CC[C@@]6(C)[C@]5(C)CC[C@H]4C3(C)C)O[C@H](CO)[C@@H](O[C@@H]3O[C@@H](C)[C@H](O)[C@@H](O)[C@H]3O)[C@@H]2O)[C@H](O)[C@H](O)[C@H]1O	16.8 µM
C[C@@H]1O[C@@H](O[C@H]2[C@H](O[C@H]3CC[C@]4(C)[C@H]5CC=C6[C@@H]7CC(C)(C)CC[C@]7(C(=O)NCCCc7ccccc7)CC[C@@]6(C)[C@]5(C)CC[C@H]4C3(C)C)O[C@H](CO)[C@@H](O[C@@H]3O[C@@H](C)[C@H](O)[C@@H](O)[C@H]3O)[C@@H]2O)[C@H](O)[C@H](O)[C@H]1O	13.1 µM
COc1cccc(NC(=O)[C@]23CCC(C)(C)C[C@H]2C2=CC[C@@H]4[C@@]5(C)CC[C@H](O[C@@H]6O[C@H](CO)[C@@H](O[C@@H]7O[C@@H](C)[C@H](O)[C@@H](O)[C@H]7O)[C@H](O)[C@H]6O[C@@H]6O[C@@H](C)[C@H](O)[C@@H](O)[C@H]6O)C(C)(C)[C@@H]5CC[C@@]4(C)[C@]2(C)CC3)c1	8.33 µM
COc1ccccc1CNC(=O)[C@]12CCC(C)(C)C[C@H]1C1=CC[C@@H]3[C@@]4(C)CC[C@H](O[C@@H]5O[C@H](CO)[C@@H](O[C@@H]6O[C@@H](C)[C@H](O)[C@@H](O)[C@H]6O)[C@H](O)[C@H]5O[C@@H]5O[C@@H](C)[C@H](O)[C@@H](O)[C@H]5O)C(C)(C)[C@@H]4CC[C@@]3(C)[C@]1(C)CC2	16.8 µM
C[C@@H]1O[C@@H](O[C@H]2[C@H](O[C@H]3CC[C@]4(C)[C@H]5CC=C6[C@@H]7CC(C)(C)CC[C@]7(C(=O)Nc7ccccc7)CC[C@@]6(C)[C@]5(C)CC[C@H]4C3(C)C)O[C@H](CO)[C@@H](O[C@@H]3O[C@@H](C)[C@H](O)[C@@H](O)[C@H]3O)[C@@H]2O)[C@H](O)[C@H](O)[C@H]1O	18.1 µM
